tested on: SF-295 CNS; assay: NCI-60 one-dose screen, 48 h; conditions: 10 µM
About 83,000 compounds went through this panel and 20% of them were active in at least one assay; those are over-represented in the sample as a whole. The source made the active and inactive calls. Rule for the calls: active = growth percent below 10; inactive = the rest.
Valid outcomes are listed here; reply with one: 1 for active, -1 for inactive

// known answers, use as guide
>  <smiles>
O=C(CCCCCCC(=O)Nc1cccnc1)NO

>  <classification>
-1

$$$$
>  <smiles>
CC[C@H]1CCC/C=C/[C@@H]2C[C@H](O)C[C@H]2[C@H](O)/C=C/C(=O)O1

>  <classification>
1

$$$$
>  <smiles>
O=C(C[n+]1ccccc1)c1ccc2ccccc2c1

>  <classification>
-1

$$$$

query: Could you check what this test reported for Oc1[nH]c2cc(Cl)ccc2c1/C=c1/ccc2c(c1)N=C(c1cc(F)cc(F)c1)N=2 ?
result: -1

query: Could you check what this test reported for Cc1cccc2c(NCCN(C)C)c3cccc(C(=O)NCCN(C)C)c3nc12 ?
result: 1

query: Could you check what this test reported for Cc1ccc(CC#N)cc1C ?
result: -1

query: Could you check what this test reported for COc1cc2cc3c(nc2cc1OC)CCN3Cc1ccc(NC(=O)Nc2cc(C(F)(F)F)cc(C(F)(F)F)c2)cc1 ?
result: -1

query: Could you check what this test reported for CN(C)c1ccc(/C=C/C=N/NC(=O)c2cc(O)c(O)c(O)c2)cc1 ?
result: -1

query: Could you check what this test reported for O=C(Nc1cccc(-n2cc(-c3ccncc3)c(-c3cc(O)cc(Cl)c3)n2)c1)c1ccc(N2CCOCC2)c(C(F)(F)F)c1 ?
result: 1

query: Could you check what this test reported for O=C(c1cccs1)c1ccccc1Cc1ccccc1 ?
result: -1
